Study System: T1, human IGSF11 (VSIG3) on cells (human, UniProt Q5DX21 23-431)
T1 sequence: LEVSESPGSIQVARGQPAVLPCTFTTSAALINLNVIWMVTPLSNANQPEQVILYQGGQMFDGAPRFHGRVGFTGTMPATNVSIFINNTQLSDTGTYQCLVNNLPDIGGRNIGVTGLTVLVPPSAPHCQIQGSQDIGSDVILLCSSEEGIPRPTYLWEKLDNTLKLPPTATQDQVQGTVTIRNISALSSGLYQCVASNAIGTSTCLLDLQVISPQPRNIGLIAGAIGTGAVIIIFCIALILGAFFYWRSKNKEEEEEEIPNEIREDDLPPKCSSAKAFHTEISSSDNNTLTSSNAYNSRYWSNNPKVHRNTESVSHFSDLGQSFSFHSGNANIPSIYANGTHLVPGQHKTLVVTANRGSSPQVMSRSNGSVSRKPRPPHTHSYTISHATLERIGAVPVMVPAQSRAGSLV
Assay: FACS, IgG1-format antibodies; M579-A2-luc cells (M) treated with scrambled control siRNA (SC)
Recorded Metric: percentage binding (FACS heat-map) (%)
The reply should be a number in %, with the unit left off.

1. A-012 (IgG1 format) (antibody, V domains shown, human IgG1 format) VH: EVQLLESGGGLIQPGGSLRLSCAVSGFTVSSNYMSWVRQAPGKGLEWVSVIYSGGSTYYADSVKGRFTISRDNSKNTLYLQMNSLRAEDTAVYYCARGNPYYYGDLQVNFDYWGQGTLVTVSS VL: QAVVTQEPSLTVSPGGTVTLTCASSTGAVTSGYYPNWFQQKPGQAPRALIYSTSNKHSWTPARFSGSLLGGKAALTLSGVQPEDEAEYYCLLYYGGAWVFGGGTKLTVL; 65.4

Here is the next item to consider.
Note to self: percentage binding (FACS heat-map) recorded for B-002 (chain-swapped IgG1) (antibody, V domains shown, human IgG1 format; also called B2) VH: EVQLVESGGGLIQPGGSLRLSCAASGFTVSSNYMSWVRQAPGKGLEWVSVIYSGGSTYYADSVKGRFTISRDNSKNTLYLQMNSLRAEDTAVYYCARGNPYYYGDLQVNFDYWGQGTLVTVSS VL: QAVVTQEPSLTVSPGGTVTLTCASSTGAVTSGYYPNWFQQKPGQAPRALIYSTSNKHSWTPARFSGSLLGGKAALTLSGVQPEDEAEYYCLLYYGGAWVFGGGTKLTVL was 70.7
